system: G-401 (Other Solid Carcinomas); test: combination Emax (second highest fraction inhibited in the dose matrix, 72 h); higher = more inhibition; extreme values may be limits of the assay
result_type: combination Emax
In your answer, state the number alone without any accompanying words.

For Cc1cc2ncnn2cc1Nc1ncc2c(n1)n(C1CCOCC1)c(=O)n2C [AZD7648] + CCN(CCO)CCCOc1ccc2c(Nc3cc(CC(=O)Nc4cccc(F)c4)[nH]n3)ncnc2c1 [AZD2811] (first compound max 10 µM, 7x7, partner max 1 µM) , write its combination Emax.
0.51

Annotate the compound Cc1c2c(nn1C)CSCc1cc(n(C)n1)CSc1cc(c3ccccc3c1)OCCCc1c(C(=O)O)n(C)c3c-2c(Cl)ccc13 [AZD5991] + Cc1cc2ncnn2cc1Nc1ncc2c(n1)n(C1CCOCC1)c(=O)n2C [AZD7648] (first compound max 1 µM, 7x7, partner max 10 µM) with its measured combination Emax.
0.616

Please list combination Emax recorded for the compound CC1(C)CCC(CN2CCN(c3ccc(C(=O)NS(=O)(=O)c4ccc(NCC5CCOCC5)c([N+](=O)[O-])c4)c(Oc4cnc5[nH]ccc5c4)c3)CC2)=C(c2ccc(Cl)cc2)C1 [Venetoclax] + C=CCn1c(=O)c2cnc(Nc3ccc(N4CCN(C)CC4)cc3)nc2n1-c1cccc(C(C)(C)O)n1 [AZD1775] (first compound max 1 µM, partner max 1 µM)
0.83

Name the recorded combination Emax of the compound listed here: Cn1cnc2c(F)c(Nc3ccc(Br)cc3Cl)c(C(=O)NOCCO)cc21 [Selumetinib] + CC(C)n1c(=O)n(C)c2cnc3cc(F)c(-c4ccc(OCCCN5CCCCC5)nc4)cc3c21 [AZD1390] (first compound max 10 µM, 7x7, partner max 0.3 µM)
0.367

Specify combination Emax for NC1(C(=O)N[C@@H](CCO)c2ccc(Cl)cc2)CCN(c2ncnc3[nH]ccc23)CC1 [Capivasertib] + Cn1cnc2c(F)c(Nc3ccc(Br)cc3Cl)c(C(=O)NOCCO)cc21 [Selumetinib] (first compound max 10 µM, 7x7, partner max 10 µM) and stop.
0.746

Reference for the values: the supplement of paper PMC11061612
